Test Description: In vivo biodegradability assay (lipid concentration in mouse liver by LC-MS)
Design: species or system mice
Reported Conditions: Table 1, 0.03 mpk, BLOQ: below level of quantification
Metric: In vivo degradability (ng/tissue) at 48 h 0.03 mpk

Before answering, review these 5 worked examples.
# Compound, Result
records = [
    ("CCCCCCCCC(=O)OCC(COC(=O)CCCCCCCC)OC(=O)CCCC(CCCC(=O)OC(COC(=O)CCCCCCCC)COC(=O)CCCCCCCC)OC(=O)CCCN(C)C.Cl", "BLOQ"),
    ("CN(C)CCCSC(=O)N(CCCC(=O)OC(COC(=O)CCC1CCCCC1)COC(=O)CCC1CCCCC1)CCCC(=O)OC(COC(=O)CCC1CCCCC1)COC(=O)CCC1CCCCC1", "BLOQ"),
    ("CCCCCCCCC(=O)OCC(COC(=O)CCCCCCCC)COC(=O)CCN(CCC(=O)OCC(COC(=O)CCCCCCCC)COC(=O)CCCCCCCC)C(=O)SCCCN(C)C", "<340 ng/tissue"),
    ("CCCCCCCCC(=O)OCC(COC(=O)CCCCCCCC)OC(=O)CCCN(CCCC(=O)OC(COC(=O)CCCCCCCC)COC(=O)CCCCCCCC)C(=O)SCCCN(C)C", "BLOQ"),
    ("CCCCCCC(C)C(=O)OCC(COC(=O)C(C)CCCCCC)OC(=O)CCCN(CCCC(=O)OC(COC(=O)C(C)CCCCCC)COC(=O)C(C)CCCCCC)C(=O)SCCCN(C)C (centres unmarked)", "<340 ng/tissue"),
]

Alright, here's another compound for you.
CC(CC1CCCCC1)C(=O)OCC(COC(=O)C(C)CC1CCCCC1)OC(=O)CCCN(CCCC(=O)OC(COC(=O)C(C)CC1CCCCC1)COC(=O)C(C)CC1CCCCC1)C(=O)SCCCN(C)C (centres unmarked) yielded In vivo degradability (ng/tissue) at 48 h 0.03 mpk of BLOQ

---

Test Description: In vivo biodegradability assay (lipid concentration in mouse liver by LC-MS)
Parameters: species or system mice
Reported Conditions: Table 2, 0.1 mpk, BLOQ: below level of quantification
Metric: In vivo degradability (ng/tissue) at 48 h 0.1 mpk

# Compound, Result
measured = [
    ("CCCCCCCCC(=O)OCC(COC(=O)CCCCCCCC)OC(=O)CN(CC(=O)OC(COC(=O)CCCCCCCC)COC(=O)CCCCCCCC)C(=O)SCCCN(C)C", "BLOQ"),
    ("CN(C)CCCSC(=O)N(CCCC(=O)OC(COC(=O)CCCC1CCCCC1)COC(=O)CCCC1CCCCC1)CCCC(=O)OC(COC(=O)CCCC1CCCCC1)COC(=O)CCCC1CCCCC1", "BLOQ"),
    ("CCC1CCC(C(=O)OCC(C)(COC(=O)CCN(CCC(=O)OCC(C)(COC(=O)C2CCC(CC)CC2)COC(=O)C2CCC(CC)CC2)C(=O)SCCCN(C)C)COC(=O)C2CCC(CC)CC2)CC1 (stereo not drawn)", "<340 ng/tissue"),
]

---

Test Description: Mouse plasma stability
Assay type: in vitro ADME, CD-1 mouse
Reported Conditions: Table 2, 37° C., 1 μM lipid
Metric: Plasma half life % remaining after 2 h (%)

Here's what some known entries look like.
# Compound, Recorded Number
measured = [
    ("CN(C)CCCSC(=O)N(CCCCCC(=O)OC(COC(=O)CCC1CCCCC1)COC(=O)CCC1CCCCC1)CCCCCC(=O)OC(COC(=O)CCC1CCCCC1)COC(=O)CCC1CCCCC1 [LIPID 12]", 57),
    ("CC1CCC(CC(=O)OCC(COC(=O)CC2CCC(C)CC2)OC(=O)CCCN(CCCC(=O)OC(COC(=O)CC2CCC(C)CC2)COC(=O)CC2CCC(C)CC2)C(=O)SCCCN(C)C)CC1 (stereo not shown) [LIPID 15]", 100),
    ("CC1CCC(CC(=O)OCC(C)(COC(=O)CCN(CCC(=O)OCC(C)(COC(=O)CC2CCC(C)CC2)COC(=O)CC2CCC(C)CC2)C(=O)SCCCN(C)C)COC(=O)CC2CCC(C)CC2)CC1 (stereo not shown) [LIPID 21]", 100),
    ("CCCCCC(C)(C)C(=O)OCC(COC(=O)C(C)(C)CCCCC)OC(=O)CCCN(CCCC(=O)OC(COC(=O)C(C)(C)CCCCC)COC(=O)C(C)(C)CCCCC)C(=O)SCCCN(C)C [LIPID 19]", 100),
    ("CC1CCC(CCC(=O)OCC(C)(COC(=O)CCC2CCC(C)CC2)COC(=O)CCN(CCC(=O)OCC(C)(COC(=O)CCC2CCC(C)CC2)COC(=O)CCC2CCC(C)CC2)C(=O)SCCCN(C)C)CC1 (stereo not shown) [LIPID 20]", 100),
]

[1] CCCCCCCCC(=O)OCC(COC(=O)CCCCCCCC)COC(=O)CCN(CCC(=O)OCC(COC(=O)CCCCCCCC)COC(=O)CCCCCCCC)C(=O)SCCCN(C)C [LIPID 14]
[2] CCCCCCCCC(=O)OCC(COC(=O)CCCCCCCC)OC(=O)CCC(CCC(=O)OC(COC(=O)CCCCCCCC)COC(=O)CCCCCCCC)OC(=O)CCCN(C)C [LIPID 5]
// query Given 1 and 2 , report the one with the higher recorded Plasma half life % remaining after 2 h. Write down the label of the entry you select.
// result 1

---

Test Description: In vivo biodegradability assay (lipid concentration in mouse liver by LC-MS)
Parameters: species or system mice
Reported Conditions: Table 1, 0.1 mpk, BLOQ: below level of quantification
Below, each of the compounds is paired with its reported In vivo degradability (ng tissue) at 48 h 0.1 mpk value.

# Compound, Result
measured = [
    ("CCCCCC(C)(C)C(=O)OCC(COC(=O)C(C)(C)CCCCC)OC(=O)CCCN(CCCC(=O)OC(COC(=O)C(C)(C)CCCCC)COC(=O)C(C)(C)CCCCC)C(=O)SCCCN(C)C [LIPID 19]", "847 ng tissue"),
    ("CCC1CCC(C(=O)OCC(COC(=O)C2CCC(CC)CC2)OC(=O)CCCN(CCCC(=O)OC(COC(=O)C2CCC(CC)CC2)COC(=O)C2CCC(CC)CC2)C(=O)SCCCN(C)C)CC1 (stereo not drawn) [LIPID 16]", "<340 ng tissue"),
]

Here is another compound to look at.
Per the records, this compound ( CCCCCCCCC(=O)OCC(COC(=O)CCCCCCCC)COC(=O)CCN(CCC(=O)OCC(COC(=O)CCCCCCCC)COC(=O)CCCCCCCC)C(=O)SCCCN(C)C [LIPID 14] ) has In vivo degradability (ng tissue) at 48 h 0.1 mpk equal to <340 ng tissue

---

Test Description: Mouse plasma stability
Assay type: in vitro ADME, CD-1 mouse
Reported Conditions: Table 1, 37° C., 1 μM lipid
Metric: Plasma half life % remaining after 2 h (%)

# Compound, Units Label, Plasma half life % remaining after 2 h
rows = [
    ("CCCCCCCCC(=O)OCC(COC(=O)CCCCCCCC)OC(=O)CCC(CCC(=O)OC(COC(=O)CCCCCCCC)COC(=O)CCCCCCCC)OC(=O)CCCN(C)C [LIPID 5]", "%", 40),
]

[a] CN(C)CCCSC(=O)N(CCCC(=O)OC(COC(=O)CCCC1CCCCC1)COC(=O)CCCC1CCCCC1)CCCC(=O)OC(COC(=O)CCCC1CCCCC1)COC(=O)CCCC1CCCCC1 [LIPID 11]
[b] CC1CCC(CC(=O)OCC(COC(=O)CC2CCC(C)CC2)OC(=O)CCCN(CCCC(=O)OC(COC(=O)CC2CCC(C)CC2)COC(=O)CC2CCC(C)CC2)C(=O)SCCCN(C)C)CC1 (stereo not drawn) [LIPID 15]
// query Exercise: compare a and b ; which one has the greater Plasma half life % remaining after 2 h? To answer, give the label that identifies your chosen option.
// result b

---

Test Description: In vivo biodegradability assay (lipid concentration in mouse liver by LC-MS)
Set-up: species or system mice
Reported Conditions: Table 2, 0.03 mpk, BLOQ: below level of quantification
Metric: In vivo degradability (ng/tissue) at 48 h 0.03 mpk

Study these solved cases before continuing.
# Molecule, Result
rows = [
    ("CN(C)CCCSC(=O)N(CCCCCC(=O)OC(COC(=O)CCC1CCCCC1)COC(=O)CCC1CCCCC1)CCCCCC(=O)OC(COC(=O)CCC1CCCCC1)COC(=O)CCC1CCCCC1 [LIPID 12]", "BLOQ"),
    ("CCCCCCCCC(=O)OCC(COC(=O)CCCCCCCC)OC(=O)CCCC(CCCC(=O)OC(COC(=O)CCCCCCCC)COC(=O)CCCCCCCC)OC(=O)CCCN(C)C.Cl [LIPID 3]", "BLOQ"),
    ("CN(C)CCCSC(=O)N(CCCC(=O)OC(COC(=O)C1CC2CCCCC2C1)COC(=O)C1CC2CCCCC2C1)CCCC(=O)OC(COC(=O)C1CC2CCCCC2C1)COC(=O)C1CC2CCCCC2C1 (centres unmarked) [LIPID 28]", "BLOQ"),
    ("CCCCCCCCC(=O)OCC(COC(=O)CCCCCCCC)OC(=O)CCN(CCC(=O)OC(COC(=O)CCCCCCCC)COC(=O)CCCCCCCC)C(=O)SCCCN(C)C [LIPID 13]", "<340 ng/tissue"),
]

get_value(item= CCCCCCC(C)C(=O)OCC(COC(=O)C(C)CCCCCC)OC(=O)CCCN(CCCC(=O)OC(COC(=O)C(C)CCCCCC)COC(=O)C(C)CCCCCC)C(=O)SCCCN(C)C (centres unmarked) [LIPID 18] , readout=In vivo degradability (ng/tissue) at 48 h 0.03 mpk) returns <340 ng/tissue
